# PROTOCOL: qHTS assay to test for compound auto fluorescence at 590 nm (red) in HEK293 cell free culture (AID 720683); further: on the % scale 0 is the no-effect control and ±100 the full control effect
# PARTICULARS: cell-free medium autofluorescence, Ex540/Em590 red; series mostly up to 91.3 µM
The source made the active and inactive calls. The call rests on the fitted dose curve; in most records, active means well fitted curve in the direction sought with a large enough effect in the repeat runs; inconclusive means weak or mixed curves; inactive means flat fitted curve, though single readings scatter.
PROPERTY NAME: fluorescence, % of fluorescent control

CCCCCCOC(=O)C(C)C
inactive
COC(=O)CC(=O)C(C)(C)C
inactive
CCC(C(=O)OCCN(CC)CC)c1ccccc1 (stereo not drawn)
inactive
C=CC(=O)NCOCC(C)C
inactive
CC(C)C(=O)O
inactive
Cc1nccn1-c1ccc(Sc2cccc(C3(C(N)=O)CCOCC3)c2)cc1
inactive
C=CC(C)=CCC=C(C)C
inactive
O=C(O)Cc1ccc(-c2ccccc2)cc1
0.0962% [at 18.6 µM] (inactive)

Exam item: I'd like to know its fluorescence, % of fluorescent control. The compound in question is CCCCCCCC/C=C\CCCCCCCC(=O)OC
Marked response: inactive

Exam item: May I ask what fluorescence, % of fluorescent control has been recorded for CC1CC(=O)NN=C1c1ccc(NCC(C)(C)NCC(O)COc2cc(Cl)ccc2C#N)cc1 (stereo not drawn) ?
Marked response: inactive

Exam item: Item COc1ccccc1N=Nc1c(S(=O)(=O)O)cc2cc(S(=O)(=O)O)cc(NC(C)=O)c2c1O has what recorded fluorescence, % of fluorescent control?
Marked response: inactive

Exam item: Data request, read-out fluorescence, % of fluorescent control, for CCCc1c(OCCCOc2ccc(OCC(=O)O)cc2)ccc(C(C)=O)c1O
Marked response: inactive

Exam item: Using the record for CC(=O)CC(c1ccc([N+](=O)[O-])cc1)c1c(O)c2ccccc2oc1=O (stereo not drawn) , report its fluorescence, % of fluorescent control.
Marked response: -0.0043% [at 18.6 µM] (inactive)

====

# PROTOCOL: qHTS assay to identify small molecule agonists of the estrogen receptor beta (ER-beta) signaling pathway - cell viability counter screen (AID 1259380); further: nearly all actives have a fitted effect of over 30% in size
# PARTICULARS: ER-beta-bla HEK293T viability, CellTiter-Glo luminescence, 16 h; series mostly up to 92.4 µM
Inconclusive results are not listed. Calls of active or inactive are those of the source. Calls follow the shape of the dose curve; as a rule, active = well fitted cell-killing curve with a large enough effect in the repeat runs; inconclusive = weak or mixed curves, or effect the other way; inactive = flat fitted curve, though single readings scatter.
Please state which outcome applies, choosing from active, inactive

Exam item: What outcome does the record of this test show for O=C(O)c1ccc(CO)o1 ?
Marked response: inactive

Exam item: Per the records of this test, what outcome belongs to O=[N+]([O-])c1cccc(S(=O)(=O)NCCNS(=O)(=O)c2cccc([N+](=O)[O-])c2)c1 ?
Marked response: inactive

Exam item: In this assay, the call recorded for CCCCC(CC)CNCC(CC)CCCC (configuration not stated) was what?
Marked response: inactive

Exam item: Which outcome was entered for the molecule COCC(O)CO (configuration not stated) in this test?
Marked response: inactive

Exam item: Recorded call for CNC(=S)NC ?
Marked response: active

Exam item: For COC(=O)[C@@H]1CC2=CC(=O)CC[C@]2(C)[C@@]23O[C@@H]2C[C@@]2(C)[C@@H](CC[C@@]24CCC(=O)O4)[C@H]13 , which call appears in the assay record?
Marked response: inactive

Exam item: // outcome(item) with item = Nc1nc(Cl)nc2c1ncn2[C@@H]1O[C@H](CO)[C@@H](O)[C@@H]1F
Marked response: inactive

====

# PROTOCOL: qHTS assay to identify small molecule agonists of the estrogen receptor beta (ER-beta) signaling pathway - cell viability counter screen (AID 1259380); further: nearly all actives have a fitted effect of over 30% in size
# PARTICULARS: ER-beta-bla HEK293T viability, CellTiter-Glo luminescence, 16 h; series mostly up to 92.4 µM
Inconclusive results are not listed. Calls of active or inactive are those of the source. Calls come from the whole dose curve; as a rule, active = well fitted cell-killing curve with a large enough effect in the repeat runs; inconclusive = weak or mixed curves, or effect the other way; inactive = flat fitted curve, though single readings scatter.
Answer with one of the outcomes active, inactive

Exam item: Query: recorded result category for O=C(CCCCCCC(=O)Nc1ccccc1)NO in this test
Marked response: active

Exam item: What outcome does the record of this test show for CC(C)CCCCCCOC(=O)CCCCC(=O)OCCCCCCC(C)C ?
Marked response: inactive

Exam item: # lookup: test call for CCOC(=O)OCC
Marked response: inactive

Exam item: Each compound tested received a call. Report the one for CCCOc1ccc(S(=O)(=O)N2CCN(CC)CC2)cc1-c1nc2c(CC)n(Cc3ccccn3)nc2c(=O)[nH]1 .
Marked response: inactive

Exam item: Could you kindly confirm the outcome this assay logged for CCC(C)(C)C1CCC(O)CC1 (configuration not stated) ?
Marked response: inactive

Exam item: How did this test come out for COc1cc2[nH]c(=O)[nH]c(=O)c2cc1OC ?
Marked response: inactive

Exam item: Dear all, I need the recorded test outcome for CCCCC(=O)O[C@]1(C(=O)CO)[C@@H](C)C[C@H]2[C@@H]3CCC4=CC(=O)C=C[C@]4(C)[C@@]3(F)[C@@H](O)C[C@@]21C , thank you.
Marked response: active

====

# PROTOCOL: qHTS assay to identify small molecule antagonists of the sonic hedgehog signaling (Shh) pathway (AID 1259369); further: nearly all actives have a fitted effect of over 45% in size
# PARTICULARS: NIH/3T3 Gli1-Luc reporter, Shh antagonist, luminescence 24 h; series mostly up to 92.4 µM
Records with an inconclusive call do not appear. The source made the active and inactive calls. The call rests on the fitted dose curve.
Return exactly one item of YES = active, NO = inactive

Exam item: Which result was noted for this compound in the test: CCCCCCCCCOC(C)=O
Marked response: NO

Exam item: # lookup: test call for CCC(Cc1ccccc1)(C(=O)c1ccc(N2CCOCC2)cc1)N(C)C (stereo unspecified)
Marked response: YES

Exam item: Test call for this compound, please: CCCCC(=O)O[C@]1(C(=O)CO)CC[C@H]2[C@@H]3CCC4=CC(=O)CC[C@]4(C)[C@H]3[C@@H](O)C[C@@]21C
Marked response: NO

Exam item: GET /call?item= NCC1CCCC(CN)C1 (stereo unspecified) returns the recorded outcome of this test.
Marked response: NO

Exam item: Record lookup: outcome of this test for c1ccc(COCc2ccccc2)cc1 ?
Marked response: NO

Exam item: Record request — test call for Cc1cc2nc3ccc(=[N+](C)C)cc-3sc2cc1N
Marked response: YES

====

# PROTOCOL: qHTS assay to test for compound auto fluorescence at 535 nm (green) in HEK293 cells (AID 720680); further: on the % scale 0 is the no-effect control and ±100 the full control effect
# PARTICULARS: green autofluorescence 485/535 nm; series mostly up to 91.3 µM
Calls of active or inactive are those of the source. The call rests on the fitted dose curve; in most records, active means well fitted curve in the direction sought with a large enough effect in the repeat runs; inconclusive means weak or mixed curves; inactive means flat fitted curve, though single readings scatter.
PROPERTY NAME: fluorescence, % of fluorescein

Example entries and their recorded answers appear below.
CC(C)(C)C(=O)C(Oc1ccc(Cl)cc1)n1ccnc1 (configuration not stated)
inactive
COc1cc2c(N3CCN(C(=O)Nc4ccc(OC(C)C)cc4)CC3)ncnc2cc1OCCCN1CCCCC1
inactive
CCC(C)=O
inactive
O=C(CCCN1CCN(c2ccc(F)cc2)CC1)NC1c2ccccc2CSc2ccccc21 (configuration not stated)
inactive
COC(=O)[C@@H]1CC2=CC(=O)CC[C@]2(C)[C@@]23O[C@@H]2C[C@@]2(C)[C@@H](CC[C@@]24CCC(=O)O4)[C@H]13
inactive

Exam item: Bench note: what fluorescence, % of fluorescein did C[Si]1(C)O[Si](C)(C)O[Si](C)(C)O1 show?
Marked response: inactive

Exam item: Please look up its fluorescence, % of fluorescein: CO/N=C1\CN(c2nc3c(cc2F)c(=O)c(C(=O)O)cn3C2CC2)CC1CN (configuration not stated)
Marked response: inactive

Exam item: Which fluorescence, % of fluorescein value belongs to OCC1CC=CCC1 (configuration not stated) ?
Marked response: inactive

Exam item: # lookup: fluorescence, % of fluorescein of C/C=C(\C)C(=O)OCCC(C)CCC=C(C)C (configuration not stated)
Marked response: inactive

Exam item: Need fluorescence, % of fluorescein of CC(=O)OCC(=O)[C@@]12OC(C)(C)O[C@@H]1C[C@H]1[C@@H]3C[C@H](F)C4=CC(=O)C=C[C@]4(C)[C@@]3(F)[C@@H](O)C[C@@]12C , thanks.
Marked response: -0.0611% [at 18.6 µM] (inactive)

Exam item: Recorded fluorescence, % of fluorescein of CC(C)(CCl)c1ccccc1 , please.
Marked response: inactive

====

# SYSTEM TESTED: Luciferin 4-monooxygenase (Photinus pyralis) (UniProt P08659)
# Sequence (P08659 whole entry, looked up): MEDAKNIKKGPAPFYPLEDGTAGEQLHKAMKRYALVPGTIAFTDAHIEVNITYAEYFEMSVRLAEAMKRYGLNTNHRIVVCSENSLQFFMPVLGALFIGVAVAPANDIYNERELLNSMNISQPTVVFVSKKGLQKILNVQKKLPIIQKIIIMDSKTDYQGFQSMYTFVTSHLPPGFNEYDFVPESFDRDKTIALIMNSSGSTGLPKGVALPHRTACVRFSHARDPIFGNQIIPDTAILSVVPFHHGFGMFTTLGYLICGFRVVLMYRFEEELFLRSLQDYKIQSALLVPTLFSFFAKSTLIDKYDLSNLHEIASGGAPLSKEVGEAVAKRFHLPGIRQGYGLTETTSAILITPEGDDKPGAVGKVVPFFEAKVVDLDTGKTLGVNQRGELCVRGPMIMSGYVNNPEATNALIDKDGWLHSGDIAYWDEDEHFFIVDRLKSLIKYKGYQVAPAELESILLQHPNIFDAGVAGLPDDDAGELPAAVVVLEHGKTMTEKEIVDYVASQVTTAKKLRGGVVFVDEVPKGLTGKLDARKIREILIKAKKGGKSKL
# PROTOCOL: qHTS assay to identify small molecule inhibitors of firefly luciferase (AID 1224835); further: nearly all actives have a fitted effect of over 25% in size
# PARTICULARS: purified P. pyralis luciferase, luminescence inhibition; series mostly up to 115 µM
Inconclusive results are not listed. Calls of active or inactive are those of the source. Calls come from the whole dose curve; as a rule, active = well fitted inhibition curve with a large enough effect in the repeat runs; inconclusive = weak or mixed curves; inactive = flat fitted curve, though single readings scatter.
Classes to choose from: active, inactive

Exam item: Hey, what did the test say about NC(=O)N(O)[C@@H]1C=C[C@H](Oc2cccc(Oc3ccc(F)cc3)c2)C1 ?
Marked response: active

Exam item: // param item: NC(=O)Nc1ccc(Cl)cc1 ; yields the recorded call
Marked response: inactive

Exam item: What was the test verdict on CC1C2CC(CC2C2CCCC(O)C2)C1(C)C (stereo unspecified) ?
Marked response: inactive

Exam item: Recorded test call requested for O=C(O)c1ccccc1NCCc1ccccc1
Marked response: active

Exam item: In this assay, the call recorded for CC(C)CCCC(=O)O was what?
Marked response: inactive

Exam item: Please state the recorded outcome for this compound: COC(=O)c1cc(S(N)(=O)=O)ccc1OC
Marked response: inactive

Exam item: For this compound, state the assay outcome: CCCCC(CC)CNCC(CC)CCCC (stereo unspecified)
Marked response: inactive

Exam item: Entry Cc1cc(O)c(C(C)C)cc1Cl : call = ?
Marked response: inactive

Exam item: Please let me know the test result on file for C/C=C(\C)C(=O)OCCC(C)CCC=C(C)C (stereo unspecified) .
Marked response: inactive

Exam item: What did the test return for CCCCCCCCCOC(C)=O ?
Marked response: inactive

Exam item: Kindly provide the recorded test outcome for the following compound: C=CC(=O)NCOCC(C)C
Marked response: inactive

Exam item: # outcome recorded in this test, key = OC/C(Br)=C(\Br)CO
Marked response: inactive

Exam item: Please indicate how the test categorized C[C@@H]1C[C@H]2[C@@H]3CCC4=CC(=O)C=C[C@]4(C)[C@@]3(F)[C@@H](O)C[C@]2(C)[C@H]1C(=O)CO .
Marked response: inactive

Exam item: Name the outcome recorded for O=C(C(=O)c1ccccc1)c1ccccc1 in the assay.
Marked response: inactive

Exam item: Would you mind telling me which call this test gave OCCSc1ccccc1 ?
Marked response: inactive

Exam item: What did the test return for c1cnc2c(n1)CCCC2 ?
Marked response: inactive

Exam item: Hey, what did the test say about C=CC(C)=CCC=C(C)C ?
Marked response: inactive

Exam item: Dear colleague, could you share the recorded outcome for COc1cc2c(N3CCN(C(=O)Nc4ccc(OC(C)C)cc4)CC3)ncnc2cc1OCCCN1CCCCC1 when you have a moment?
Marked response: inactive

Exam item: How did this test come out for CO[C@@]12[C@H](COC(N)=O)C3=C(C(=O)C(C)=C(N)C3=O)N1C[C@@H]1N[C@@H]12 ?
Marked response: inactive

Exam item: Dear all, I need the recorded test outcome for O=C1OCCN1/N=C/c1ccc([N+](=O)[O-])o1 , thank you.
Marked response: inactive

Exam item: Which outcome was assigned to C[C@]12CCC(=O)C=C1C=C[C@@H]1[C@@H]2CC[C@@]2(C)[C@H]1CC[C@@]21CCC(=O)O1 in this test?
Marked response: inactive

Where do these numbers come from? They come from PubChem BioAssay (Tox21).
